Record form. Attribute: Ratio IC50. Fill in for each entry.
Test: Selectivity ratio of IC50 for human CYP11B1 expressed in human renal leiomyoblastoma cells harboring FDXR/FDX to IC50 for human CYP11B2 expressed in human renal leiomyoblastoma cells harboring FDXR/FDX
Type: cell-based

Recorded Ratio IC50 for Cc1cc(Cl)ccc1C(=O)Nc1cccnc1 , please?
> 11

Similarly, O=C(Nc1cccnc1)c1ccc(Cl)cc1 ?
> 7

Similarly, O=C1c2ccccc2CN1c1cccnc1 ?
> 3

Similarly, N#Cc1ccc(C(=O)Nc2cccnc2)cc1 ?
> 7

Similarly, O=C(Nc1cccnc1)c1ccccc1Cl ?
> 3
